Recorded EC50 viability values for a group of compounds are listed next.
system: DLD1 NRF2-WT; conditions: 72 h; CellTiter-Glo viability

| COMPOUND | TARGET_SYSTEM | EC50 viability |
| --- | --- | --- |
| C[C@@H](Oc1ccc2[nH]nc(/C=C/c3cnn(CCO)c3)c2c1)c1c(Cl)cncc1Cl | DLD1 NRF2-WT | > 1 µM |
| Nc1cc(COc2c(Cl)cc(C[C@H](N)C(=O)O)cc2Cl)c2oc(-c3ccccc3)nc2c1 | DLD1 NRF2-WT | > 5 µM |
| C[C@H]1C[C@@H](n2c(Nc3ccc(OC(F)(F)F)cc3)nc3cc(CCC(=O)O)ccc32)CC(C)(C)C1 | DLD1 NRF2-WT | > 10 µM |
| CC(C)[C@H]1C(=O)N[C@@H](CCCNC(=N)N)C(=O)NCC(=O)N[C@@H](CC(=O)O)C(=O)N[C@H](Cc2ccccc2)C(=O)N1C [Cilengitide] | DLD1 NRF2-WT | > 10 µM |

---

tested on: DLD1 NRF2-GOF; assay: TC50 cytotoxicity; higher = less toxic; conditions: 72 h; CellTox Green cytotoxicity

| COMPOUND | TC50 cytotoxicity |
| --- | --- |
| COc1ccc(CCc2nc3cc(-c4c(C)noc4C)ccc3n2C[C@H](C)N2CCOCC2)cc1Cl | > 25 µM |
| Cc1cnc(Nc2ccc(OCCN3CCCC3)cc2)nc1Nc1cccc(S(=O)(=O)NC(C)(C)C)c1 | 2.5 µM |
| CCN(CC)CCNC(=O)c1c(C)[nH]c(/C=C2\C(=O)Nc3ccc(F)cc32)c1C | > 1 µM |
| Cn1cc(C2=C(c3cn(C4CCN(Cc5ccccn5)CC4)c4ccccc34)C(=O)NC2=O)c2ccccc21 | > 10 µM |
| Cc1nc(=O)c2cc(CN(C)c3ccc(C(=O)N[C@@H](CCC(=O)O)C(=O)O)s3)ccc2[nH]1 | > 1 µM |
| CC[C@@H]1C(=O)OC[C@@H]1Cc1cncn1C | > 40 µM |
| O=C(O)CC1CC(c2ccccc2)=NO1 (stereo unspecified) | > 10 µM |
| CC[C@@H](C(=O)[C@@H](C)[C@@H](O)[C@H](C)[C@@H]1O[C@@H]([C@@H](CC)C(=O)O)CC[C@@H]1C)[C@H]1O[C@]2(C=C[C@@H](O)[C@]3(CC[C@@](C)([C@H]4CC[C@](O)(CC)[C@H](C)O4)O3)O2)[C@H](C)C[C@@H]1C | > 50 µM |
| O=c1[nH]c(=O)n([C@H]2C[C@H](O)[C@@H](CO)O2)cc1C(F)(F)F | > 10 µM |
| CNC(=O)c1ccc(N2C(=S)N(c3ccc(C#N)c(C(F)(F)F)c3)C(=O)C2(C)C)cc1F [Enzalutamide] | > 10 µM |
| CN1CCN(C2CCC(n3cc(-c4ccc(Oc5ccccc5)cc4)c4c(N)ncnc43)CC2)CC1 (stereo unspecified) | 3.09 µM |
| CC(C)c1cc(-c2n[nH]c(=O)n2-c2ccc3c(ccn3C)c2)c(O)cc1O | > 1 µM |
| O=C1CCC(N2C(=O)c3ccccc3C2=O)C(=O)N1 (stereo unspecified) [Thalidomide] | > 10 µM |
| COc1cc2nccc(Oc3ccc(NC(=O)Nc4cc(C)on4)c(Cl)c3)c2cc1OC | 2.64 µM |
| CCc1nc(C(N)=O)c(Nc2ccc(N3CCC(N4CCN(C)CC4)CC3)c(OC)c2)nc1NC1CCOCC1 | > 1 µM |
| CC1(COc2ccc3c(c2)ncn3-c2ccc3cccc(N4CCC(N)CC4)c3n2)COC1 | 2.89 µM |
| CC(=O)OC[C@H]1O[C@@H]([S-])[C@H](OC(C)=O)[C@@H](OC(C)=O)[C@@H]1OC(C)=O.CCP(CC)CC.[Au+] | > 2.5 µM |
| CCCc1cc(C)[nH]c(=O)c1CNC(=O)c1cc(-c2ccnc(N3CCN(C)CC3)c2)cc2c1cnn2C(C)C | > 1 µM |
| COc1cc(C)c(/C=C/C(C)=C/C=C/C(C)=C/C(=O)O)c(C)c1C | > 10 µM |
| Nc1nc2[nH]cnc2c(=S)[nH]1 | > 10 µM |
| Nc1ccccc1NC(=O)c1ccc(CNc2nccc(-c3cccnc3)n2)cc1 | > 10 µM |
